Where these numbers come from: patent US7888380B2

assay: Standard Rat Pharmacokinetics (PK); format: in vivo; conditions: plasma; rat, IV/PO 1.5/15 mg/kg; Dose(IV)*AUC(oral)/Dose(oral)*AUC(IV)
testReadout: bioavailability (%)

molecule	displayUnit	numericResult
NCC(=O)NS(=O)(=O)c1ccc(Nc2nc(N)n(C(=O)c3c(F)cccc3F)n2)cc1	%	0

====

test: Standard Rat Pharmacokinetics (PK); type: in vivo; details: rat plasma, PO 10 mg/kg of prodrug; read-out: Prodrug Cmax (μM) PO

molecule	Cmax
Nc1nc(Nc2ccc(S(=O)(=O)NC(=O)COCCOCCOCC(=O)O)cc2)nn1C(=O)c1c(F)cccc1F [Compound 12]	0.04 µM
C[C@@H](N)C(=O)NS(=O)(=O)c1ccc(Nc2nc(N)n(C(=O)c3c(F)cccc3F)n2)cc1 [Compound 14]	0.08 µM
Nc1nc(Nc2ccc(S(=O)(=O)NC(=O)[C@@H](N)CC(=O)O)cc2)nn1C(=O)c1c(F)cccc1F [Compound 17]	0.1 µM
C[C@H](N)C(=O)N[C@@H](C)C(=O)NS(=O)(=O)c1ccc(Nc2nc(N)n(C(=O)c3c(F)cccc3F)n2)cc1.O=C(O)C(F)(F)F.O=C(O)C(F)(F)F.O=C(O)C(F)(F)F [Compound 15]	0.167 µM
Nc1nc(Nc2ccc(S(=O)(=O)NC(=O)CCCC(=O)O)cc2)nn1C(=O)c1c(F)cccc1F [Compound 11]	0.346 µM
